tgt: potassium ion channel hERG (Homo sapiens, UniProt Q12809)
Sequence (Q12809 whole entry): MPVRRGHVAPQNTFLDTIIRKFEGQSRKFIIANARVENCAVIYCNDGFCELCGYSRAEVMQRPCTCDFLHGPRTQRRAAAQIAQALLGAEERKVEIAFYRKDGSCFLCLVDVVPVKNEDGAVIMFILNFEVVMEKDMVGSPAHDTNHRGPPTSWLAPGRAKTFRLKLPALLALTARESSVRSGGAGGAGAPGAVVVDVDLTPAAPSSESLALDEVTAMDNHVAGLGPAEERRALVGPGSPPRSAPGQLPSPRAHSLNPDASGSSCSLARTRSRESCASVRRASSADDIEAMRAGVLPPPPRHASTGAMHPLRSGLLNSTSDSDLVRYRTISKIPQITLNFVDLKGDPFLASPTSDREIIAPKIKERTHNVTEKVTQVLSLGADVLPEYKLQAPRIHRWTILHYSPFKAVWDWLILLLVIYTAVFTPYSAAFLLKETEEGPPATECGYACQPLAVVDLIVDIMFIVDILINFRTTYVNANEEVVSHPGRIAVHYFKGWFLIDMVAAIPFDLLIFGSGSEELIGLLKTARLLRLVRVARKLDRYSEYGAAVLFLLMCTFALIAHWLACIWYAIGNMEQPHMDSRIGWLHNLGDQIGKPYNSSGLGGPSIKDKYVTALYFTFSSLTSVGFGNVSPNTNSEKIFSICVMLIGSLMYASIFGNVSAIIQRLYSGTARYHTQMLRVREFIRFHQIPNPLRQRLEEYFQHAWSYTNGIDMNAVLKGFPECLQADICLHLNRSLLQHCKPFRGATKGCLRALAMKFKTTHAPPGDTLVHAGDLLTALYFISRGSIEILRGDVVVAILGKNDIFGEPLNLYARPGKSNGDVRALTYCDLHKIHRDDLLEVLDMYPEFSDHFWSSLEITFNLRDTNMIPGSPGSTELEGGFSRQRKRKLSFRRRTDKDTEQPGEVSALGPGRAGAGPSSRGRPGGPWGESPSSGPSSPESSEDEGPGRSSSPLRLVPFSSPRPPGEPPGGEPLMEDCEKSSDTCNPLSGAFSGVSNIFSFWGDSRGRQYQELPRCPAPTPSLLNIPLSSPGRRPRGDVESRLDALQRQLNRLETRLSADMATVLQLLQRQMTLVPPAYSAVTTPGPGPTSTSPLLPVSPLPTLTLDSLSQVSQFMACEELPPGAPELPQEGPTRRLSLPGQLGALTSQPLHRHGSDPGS
test_summary: Assay 5 hERG assay (patch clamp, CHO cells over-expressing hERG)
condition_set: SyncroPatch 384PE, room temperature, geometric mean, read-out: Assay 5 (hERG Hu CHO if EPh CR-Syncro) GMean IC50
measurement_name: pIC50
Please note pIC50 is a logarithmic value: minus log10 of concentration in mol/L. Answer with that number alone.

Return value of pIC50 for input Cn1c(=O)n(-c2ccc(N[C@H]3CC[C@H](Nc4ncc(C5CC5)nn4)C3)nc2)c2cc(C#N)ccc21 [Example 116] , no commentary.
4.92

Return value of pIC50 for input O=c1c(OC(F)(F)F)cccn1-c1ccc(N[C@H]2CC[C@H](Nc3ncc(C4CC4)nn3)C2)nc1 [Example 52] , no commentary.
4.40

Return value of pIC50 for input COc1c(C#N)ccc(F)c1-c1ccc(N[C@H]2CC[C@H](Nc3ncc(C4CC4)nn3)C2)nc1 [Example 168] , no commentary.
5.51

Return value of pIC50 for input COc1cccc(F)c1-c1ccc(N[C@H]2CC[C@H](Nc3ncc(C)nn3)C2)nc1 [Example 308] , no commentary.
4.92

Could you now look at the following compound, please?
Return value of pIC50 for input COc1ccc(=O)n(-c2ccc(N[C@H]3CC[C@H](Nc4ncc(C5CC5)nn4)C3)nc2)c1 [Example 65] , no commentary.
4.41

###

Items are presented alongside their recorded IC50.
tgt: potassium ion channel hERG (Homo sapiens)
test_summary: Assay 5 hERG assay (patch clamp, CHO cells over-expressing hERG)
condition_set: SyncroPatch 384PE, room temperature, geometric mean, read-out: Assay 5 (hERG Hu CHO if EPh CR-Syncro) GMean IC50

Return value of IC50 for input `Cc1cccn(-c2ccc(N[C@H]3CC[C@H](Nc4ncc(C5CC5)nn4)C3)nc2)c1=O` , no commentary.
> 40 µM

Return value of IC50 for input Cc1cnc(NCC(CCO)CNc2ccc(-n3cccc(C)c3=O)cn2)nn1 (racemic) , no commentary.
> 40.1 µM

Return value of IC50 for input `O=c1cccnn1-c1cnc(N[C@H]2CC[C@H](Nc3ncc(C4CC4)nn3)C2)cn1` , no commentary.
> 40 µM

Return value of IC50 for input `CN1C(=O)CN(c2ccc(N[C@H]3CC[C@H](Nc4ncc(C5CC5)nn4)C3)nc2)C1=O` , no commentary.
36.3 µM

Return value of IC50 for input `Cc1cnc(N[C@H]2CC[C@H](Nc3ccc(-n4cccc(F)c4=O)cn3)C2)nn1` , no commentary.
> 40.1 µM

Continuing:
Return value of IC50 for input `Cc1cnc(N[C@H]2CC[C@H](Nc3ccc(-n4ccc(C#N)cc4=O)cn3)C2)nn1` , no commentary.
> 40.1 µM

Return value of IC50 for input `CN(C)C(=O)c1cnc(N[C@H]2CC[C@H](Nc3ccc(-n4ccccc4=O)cn3)C2)nn1` , no commentary.
> 40 µM

Return value of IC50 for input `O=C(NC1COC1)c1cnc(N[C@H]2CC[C@H](Nc3ccc(-n4cccc(OC(F)(F)F)c4=O)cn3)C2)nn1` , no commentary.
> 40.1 µM

###

Items are presented alongside their recorded IC50.
tgt: PCSK9 (Homo sapiens, UniProt Q8NBP7, G670E/V474I)
Sequence (Q8NBP7 with tags, fused parts or gaps V474I/G670E): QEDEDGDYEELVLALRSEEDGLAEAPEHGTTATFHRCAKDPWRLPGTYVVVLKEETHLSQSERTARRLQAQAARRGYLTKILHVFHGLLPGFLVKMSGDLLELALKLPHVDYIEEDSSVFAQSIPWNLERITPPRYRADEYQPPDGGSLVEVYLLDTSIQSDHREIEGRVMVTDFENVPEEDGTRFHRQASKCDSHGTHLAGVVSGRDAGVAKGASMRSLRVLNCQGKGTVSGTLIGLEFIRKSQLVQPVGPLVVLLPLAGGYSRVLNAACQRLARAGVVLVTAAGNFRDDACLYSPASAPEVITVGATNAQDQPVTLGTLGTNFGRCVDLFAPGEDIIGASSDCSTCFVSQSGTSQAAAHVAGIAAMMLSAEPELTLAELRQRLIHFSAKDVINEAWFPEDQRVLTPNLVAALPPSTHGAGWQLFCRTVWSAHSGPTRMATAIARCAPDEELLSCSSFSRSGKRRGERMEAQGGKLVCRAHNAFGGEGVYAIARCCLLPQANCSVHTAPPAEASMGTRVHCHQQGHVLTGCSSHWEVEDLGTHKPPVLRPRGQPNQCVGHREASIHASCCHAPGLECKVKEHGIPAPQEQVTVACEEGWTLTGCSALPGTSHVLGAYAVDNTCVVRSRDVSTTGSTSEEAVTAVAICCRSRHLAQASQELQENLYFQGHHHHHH
test_summary: biochemical
State the answer as a number, implicitly in nM.

Below, each entry is followed by its recorded IC50 result.
Return value of IC50 for input `N#Cc1ccc(=O)n(-c2ccc(N[C@H]3CC[C@H](Nc4ncc(C5CC5)nn4)C3)nc2)c1` , no commentary.
9

Return value of IC50 for input `COc1cccc(-c2ccc(N[C@H]3CC[C@H](Nc4ncc(C)nn4)C3)nc2)n1` , no commentary.
91

Return value of IC50 for input `Cc1cnc(N[C@H]2CC[C@H](Nc3ccc(-n4c(C)nc(C)c4C#N)cn3)C2)nn1` , no commentary.
108

Return value of IC50 for input `O=c1cccnn1-c1ccc(N[C@H]2CC[C@H](Nc3ncc(C4CC4)nn3)C2)nc1` , no commentary.
7.4

Return value of IC50 for input `Cc1nnc(N[C@H]2CC[C@H](Nc3ccc(-n4ccccc4=O)cn3)C2)nc1C` , no commentary.
193

Continuing:
Return value of IC50 for input `COc1ccc(=O)n(-c2ccc(N[C@H]3CC[C@H](Nc4ncc(C)nn4)C3)nc2)c1` , no commentary.
17

Return value of IC50 for input `Cc1cnc(N[C@H]2CC[C@H](Nc3ccc(-n4nc(Cl)ccc4=O)cn3)C2)nn1` , no commentary.
8.3

Return value of IC50 for input `O=c1ccncn1-c1cnc(N[C@H]2CC[C@H](Nc3ncc(C4CC4)nn3)C2)nc1` , no commentary.
143

###

Heads up, these compounds all have pKd values measured for PCSK9 (Homo sapiens).
Please note pKd is a logarithmic value: minus log10 of concentration in mol/L. Answer with that number alone.

Below, each entry is followed by its recorded pKd result.
Return value of pKd for input `CN1C(=O)CN(c2ccc(N[C@H]3CC[C@H](Nc4ncc(C5CC5)nn4)C3)nc2)C1=O` , no commentary.
8.37

Return value of pKd for input `O=C(NCC(F)F)c1cnc(N[C@H]2CC[C@H](Nc3ccc(-n4ccccc4=O)cn3)C2)nn1` , no commentary.
7.20

Return value of pKd for input `Cc1cnc(N[C@H]2CC[C@H](Nc3ccc(-n4ccccc4=O)cn3)C2)nn1` , no commentary.
7.77

Continuing:
Return value of pKd for input `O=c1c(OC(F)(F)F)cccn1-c1ccc(N[C@H]2CC[C@H](Nc3ncc(C4CC4)nn3)C2)nc1` , no commentary.
9.15

Return value of pKd for input `Cc1cnc(N[C@H]2CC[C@H](Nc3ccc(-n4cc(C#N)ccc4=O)cn3)C2)nn1` , no commentary.
7.52

Return value of pKd for input `Cc1cnc(N[C@H]2CC[C@H](Nc3ccc(-n4cccc(OC(F)F)c4=O)cn3)C2)nn1` , no commentary.
8.43

Return value of pKd for input `O=c1c(C(F)(F)F)cccn1-c1ccc(N[C@H]2CC[C@H](Nc3ncc(C4CC4)nn3)C2)nc1` , no commentary.
9.05

Return value of pKd for input `NC(=O)c1cnc(N[C@H]2CC[C@H](Nc3ccc(-n4ccccc4=O)cn3)C2)nn1` , no commentary.
7.10

###

Items are presented alongside their recorded pIC50.
tgt: GSK3β (Glycogen synthase kinase-3 beta) (Homo sapiens, UniProt P49841)
Sequence (P49841 whole entry): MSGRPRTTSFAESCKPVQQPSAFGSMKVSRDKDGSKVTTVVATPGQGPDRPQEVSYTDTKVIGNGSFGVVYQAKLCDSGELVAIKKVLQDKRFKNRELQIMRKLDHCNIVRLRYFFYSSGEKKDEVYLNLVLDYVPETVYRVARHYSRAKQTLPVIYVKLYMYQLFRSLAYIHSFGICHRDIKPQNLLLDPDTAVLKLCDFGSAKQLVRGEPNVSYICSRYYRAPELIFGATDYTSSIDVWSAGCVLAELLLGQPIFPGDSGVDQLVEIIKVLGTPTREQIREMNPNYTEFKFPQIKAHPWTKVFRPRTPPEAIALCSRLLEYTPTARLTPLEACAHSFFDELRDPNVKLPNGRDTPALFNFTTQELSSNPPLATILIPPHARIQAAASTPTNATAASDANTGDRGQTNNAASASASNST
pIC50: −log10 of the molar value.

Print GSK3β (Glycogen synthase kinase-3 beta) (Homo sapiens, UniProt P49841) pIC50 for Fc1cccc(F)c1-c1ccc(N[C@H]2CC[C@H](Nc3ncc(C4CC4)nn3)C2)nc1 [Example 53] .
< 5.00

Print GSK3β (Glycogen synthase kinase-3 beta) (Homo sapiens, UniProt P49841) pIC50 for CNC(=O)c1cnc(N[C@H]2CC[C@H](Nc3ccc(-n4ccccc4=O)cn3)C2)nn1 [Example 75] .
< 5.00

Continuing:
Print GSK3β (Glycogen synthase kinase-3 beta) (Homo sapiens, UniProt P49841) pIC50 for O=c1ccncn1-c1ccc(N[C@H]2CC[C@H](Nc3ncc(C4CC4)nn3)C2)nc1 [Example 114] .
< 5.00

Print GSK3β (Glycogen synthase kinase-3 beta) (Homo sapiens, UniProt P49841) pIC50 for Cc1cnc(N[C@H]2CC[C@H](Nc3ccc(-n4c(=O)n(C)c5ccc(C#N)nc54)cn3)C2)nn1 [Example 213] .
< 5.00

Print GSK3β (Glycogen synthase kinase-3 beta) (Homo sapiens, UniProt P49841) pIC50 for O=C(NC1COC1)c1cnc(N[C@H]2CC[C@H](Nc3ccc(-n4cccc(Cl)c4=O)cn3)C2)nn1 [Example 157] .
5.11

Print GSK3β (Glycogen synthase kinase-3 beta) (Homo sapiens, UniProt P49841) pIC50 for O=c1cccnn1-c1cnc(N[C@H]2CC[C@H](Nc3ncc(C4CC4)nn3)C2)cn1 [Example 59] .
< 5.00

Print GSK3β (Glycogen synthase kinase-3 beta) (Homo sapiens, UniProt P49841) pIC50 for O=c1c(OC(F)F)cccn1-c1ccc(N[C@H]2CC[C@H](Nc3ncc(C4CC4)nn3)C2)nc1 [Example 165] .
5.29

Print GSK3β (Glycogen synthase kinase-3 beta) (Homo sapiens, UniProt P49841) pIC50 for O=C(NC1COC1)c1cnc(N[C@H]2CC[C@H](Nc3ccc(-n4cccc(OC(F)(F)F)c4=O)cn3)C2)nn1 [Example 160] .
< 5.00

Print GSK3β (Glycogen synthase kinase-3 beta) (Homo sapiens, UniProt P49841) pIC50 for Cc1cnc(N[C@H]2CC[C@H](Nc3ccc(-n4cc(-c5c[nH]nn5)ccc4=O)cn3)C2)nn1 [Example 208] .
5.77

Print GSK3β (Glycogen synthase kinase-3 beta) (Homo sapiens, UniProt P49841) pIC50 for CCSc1cnc(N[C@H]2CC[C@H](Nc3ccc(-n4ccccc4=O)cn3)C2)nn1 [Example 258] .
6.63

Print GSK3β (Glycogen synthase kinase-3 beta) (Homo sapiens, UniProt P49841) pIC50 for Cc1cnc(N[C@H]2CC[C@H](Nc3ccc(-n4cc(C#N)ccc4=O)cn3)C2)nn1 [Example 128] .
< 5.00

Print GSK3β (Glycogen synthase kinase-3 beta) (Homo sapiens, UniProt P49841) pIC50 for Cc1cnc(N[C@H]2CC[C@H](Nc3ccc(-n4c(=O)n(C)c5cc(C#N)cnc54)cn3)C2)nn1 [Example 214] .
< 5.00

Print GSK3β (Glycogen synthase kinase-3 beta) (Homo sapiens, UniProt P49841) pIC50 for Cc1cnc(N[C@H]2CC[C@H](Nc3ccc(-n4c(=O)ccc5cccnc54)cn3)C2)nn1 [Example 197] .
< 5.00

Print GSK3β (Glycogen synthase kinase-3 beta) (Homo sapiens, UniProt P49841) pIC50 for Cc1cnc(N[C@H]2CC[C@H](Nc3ccc(-n4cc5ccccc5n4)cn3)C2)nn1 [Example 312] .
< 5.00

Print GSK3β (Glycogen synthase kinase-3 beta) (Homo sapiens, UniProt P49841) pIC50 for Cc1cnc(NCC(CCO)CNc2ccc(-n3cccc(C)c3=O)cn2)nn1 (racemic) [Example 315] .
< 5.00

Print GSK3β (Glycogen synthase kinase-3 beta) (Homo sapiens, UniProt P49841) pIC50 for COc1ccn(-c2ccc(N[C@H]3CC[C@H](Nc4ncc(C)nn4)C3)nc2)c(=O)c1 [Example 180] .
< 5.00

Entry source: patent US20240228469A1
